Target: Cholecystokinin receptor type A (Rattus norvegicus) (UniProt P30551)
Sequence (whole entry): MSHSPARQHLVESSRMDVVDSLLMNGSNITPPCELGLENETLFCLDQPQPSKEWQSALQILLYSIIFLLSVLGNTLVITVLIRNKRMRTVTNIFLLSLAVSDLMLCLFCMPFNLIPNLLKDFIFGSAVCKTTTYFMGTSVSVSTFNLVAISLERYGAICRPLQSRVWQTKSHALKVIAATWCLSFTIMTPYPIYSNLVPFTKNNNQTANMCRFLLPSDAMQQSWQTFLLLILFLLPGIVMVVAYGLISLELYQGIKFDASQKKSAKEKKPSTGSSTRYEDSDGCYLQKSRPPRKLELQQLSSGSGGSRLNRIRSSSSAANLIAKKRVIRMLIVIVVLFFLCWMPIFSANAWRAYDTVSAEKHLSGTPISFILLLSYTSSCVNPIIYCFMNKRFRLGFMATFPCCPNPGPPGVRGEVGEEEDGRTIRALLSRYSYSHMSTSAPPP
Experiment: Inhibition of binding of [125I]CCK-8 to cholecystokinin type A receptor in rat pancreatic tissue
Design: concentration or dose not given beside the values
Conditions: concentration not given here
A collection of molecules and their measured inhibition

molecule: O=C(Nc1ccc(Cl)cc1)NC1N=C(c2ccccc2)c2ccccc2N(C[C@@H](O)CCl)C1=O (mixture of isomers)
value-observed: > 15%
//
molecule: O=C(Nc1ccc(Cl)cc1)NC1N=C(c2ccccc2)c2ccccc2N(C[C@@H](O)CN2CCCC2)C1=O (mixture of isomers)
value-observed: > 16%
//
molecule: CN1C(=O)C(NC(=O)Nc2ccc3c(c2)OCO3)N=C(c2ccccc2)c2ccccc21 (stereo unspecified)
value-observed: > 3%
//
molecule: CCN(CC)C[C@H](O)CN1C(=O)C(NC(=O)Nc2ccc(Cl)cc2)N=C(c2ccccc2)c2ccccc21 (mixture of isomers)
value-observed: > 14%
//
molecule: CN1C(=O)C(NC(=O)Nc2ccc(Cl)nc2)N=C(c2ccccc2)c2ccccc21 (stereo unspecified)
value-observed: 23%

Fill in: inhibition of O=C(Nc1ccc(Cl)cc1)NC1N=C(c2ccccc2)c2ccccc2N(C[C@@H](O)CO)C1=O (mixture of isomers) is ___ > 9%

----------
biological target: Cholecystokinin receptor type A (Rattus norvegicus)
measure: pIC50
By convention, pIC50 is the negative base-10 log of a molar concentration.

Solved cases below.
molecule: Cc1cccc(NC(=O)NC2N=C(c3ccccc3)c3ccccc3N(CCO)C2=O)c1 (racemic)
pIC50: 6.57
--
molecule: O=C(Nc1ccc(Cl)cc1)N[C@@H]1N=C(c2ccccc2)c2ccccc2N(CC(=O)N2CCCC2)C1=O
pIC50: 6.05
--
molecule: Cc1ccc(NC(=O)NC2N=C(c3ccccc3)c3ccccc3N(C)C2=O)cc1C (centres undefined)
pIC50: 6.51
--
molecule: CN1C(=O)C(NC(=O)Nc2ccc3c(c2)CCC3)N=C(c2ccccc2)c2ccccc21 (centres undefined)
pIC50: 6.05

Provide value of pIC50 for this record tested with Cholecystokinin receptor type A (Rattus norvegicus): CN1C(=O)[C@@H](NC(=O)c2ccc(C(F)(F)F)cc2)N=C(c2ccccc2)c2ccccc21 5.89

Give Cholecystokinin receptor type A (Rattus norvegicus) pIC50 for Cc1cccc(NC(=O)NC2N=C(c3ccccc3)c3cccnc3N(C)C2=O)c1 (racemic) 6.98

Look up pIC50 with Cholecystokinin receptor type A (Rattus norvegicus) for this molecule: C=Cc1cccc(NC(=O)N[C@@H]2N=C(c3ccccc3)c3ccccc3N(C)C2=O)c1 5.78

For the record CN1C(=O)C(NC(=O)Nc2ccc3ccccc3n2)N=C(c2ccccc2)c2ccccc21 (centres undefined) , what value of pIC50 is listed for Cholecystokinin receptor type A (Rattus norvegicus)? 6.74

Give the reported pIC50 for CN1C(=O)[C@H](NC(=O)Nc2ccc(Cl)cc2)N=C(c2ccccc2)c2ccccc21 (system: Cholecystokinin receptor type A (Rattus norvegicus)). 5.66

----------
species on record: Cavia porcellus; assay: Selectivity ratio between CCK-B and CCK-A receptor; parameters: reference not given here
measure: Selectivity ratio
Reply with just the number.

Please review the following examples before continuing.
molecule: Cc1cccc(NC(=O)NC2N=C(c3ccccc3)c3cnccc3N(C)C2=O)c1 (racemic)
Selectivity ratio: 0.1
//
molecule: COc1cccc(NC(=O)NC2N=C(c3ccccc3)c3ccccc3N(CCC(=O)O)C2=O)c1 (racemic)
Selectivity ratio: 0.036
//
molecule: Cc1cccc(NC(=O)NC2N=C(c3ccccc3)c3ccccc3N(CCOC(=O)CCC(=O)O)C2=O)c1 (racemic)
Selectivity ratio: 5

Consider the molecule shown here: CN1C(=O)C(NC(=O)Nc2ccccc2)N=C(c2ccccc2)c2ccccc21 (racemic) What is its recorded Selectivity ratio? 0.26

----------
species: Cavia porcellus; test: Selectivity ratio between CCK-B and CCK-A receptor; parameters: reference not given here
Item-by-item account of Selectivity ratio
In your answer, state the number alone without any accompanying words.

compound: O=C(Nc1ccc(Cl)cc1)NC1N=C(c2ccccc2)c2ccccc2N(Cc2nn[nH]n2)C1=O (racemic)
measure: Selectivity ratio
value-observed: 4
//
compound: Cc1cccc(NC(=O)N[C@@H]2N=C(c3ccccc3)c3ccccc3NC2=O)c1
measure: Selectivity ratio
value-observed: 95
//
compound: CN1C(=O)C(NC(=O)Nc2ccc([N+](=O)[O-])cc2)N=C(c2ccccc2)c2ccccc21 (racemic)
measure: Selectivity ratio
value-observed: 4.5

What does the data say about its Selectivity ratio? Entry: CN1C(=O)C(NC(=O)Nc2ccc3ncccc3c2)N=C(c2ccccc2)c2ccccc21 (racemic) 6

----------
Biological target: Cholecystokinin receptor type A (Rattus norvegicus, UniProt P30551)
Sequence (P30551 whole entry): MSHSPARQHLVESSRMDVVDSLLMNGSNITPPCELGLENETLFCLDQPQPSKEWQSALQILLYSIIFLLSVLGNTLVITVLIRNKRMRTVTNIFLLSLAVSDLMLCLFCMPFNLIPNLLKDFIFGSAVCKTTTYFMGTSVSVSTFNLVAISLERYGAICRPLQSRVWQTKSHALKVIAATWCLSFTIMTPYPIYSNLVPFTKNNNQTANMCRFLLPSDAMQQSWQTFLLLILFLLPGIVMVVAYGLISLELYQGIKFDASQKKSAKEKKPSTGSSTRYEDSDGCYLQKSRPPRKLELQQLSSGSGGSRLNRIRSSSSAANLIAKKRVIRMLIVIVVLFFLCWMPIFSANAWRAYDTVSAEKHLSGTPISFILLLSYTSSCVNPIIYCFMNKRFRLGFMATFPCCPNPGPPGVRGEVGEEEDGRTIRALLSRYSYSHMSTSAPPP
measure: IC50 (nM)
Return type: number; implicit unit nM.

compound: C#Cc1cccc(NC(=O)NC2N=C(c3ccccc3)c3ccccc3N(C)C2=O)c1 (centres undefined)
system-tested: Cholecystokinin receptor type A (Rattus norvegicus, UniProt P30551)
result-units: nM
IC50: 402

compound: O=C(Nc1ccc(Cl)cc1)NC1N=C(c2ccccc2)c2ccccc2N(Cc2nnn[nH]2)C1=O (racemic)
system-tested: Cholecystokinin receptor type A (Rattus norvegicus, UniProt P30551)
result-units: nM
IC50: 2100

compound: CCN(CC)C(=O)CN1C(=O)C(NC(=O)Nc2cccc(C)c2)N=C(c2ccccn2)c2ccccc21 (racemic)
system-tested: Cholecystokinin receptor type A (Rattus norvegicus, UniProt P30551)
result-units: nM
IC50: 435

compound: COc1ccc(NC(=O)NC2N=C(c3ccccc3)c3ccccc3N(C)C2=O)cc1 (racemic)
system-tested: Cholecystokinin receptor type A (Rattus norvegicus, UniProt P30551)
result-units: nM
IC50: 165

compound: Cc1cccc(NC(=O)NC2N=C(c3ccccc3)c3ccccc3N(CC(=O)N3CCN(C)CC3)C2=O)c1 (racemic)
system-tested: Cholecystokinin receptor type A (Rattus norvegicus, UniProt P30551)
result-units: nM
IC50: 760

compound: CN1C(=O)C(NC(=O)Nc2cccc(C(F)(F)F)c2)N=C(c2ccccc2)c2ccccc21 (centres undefined)
system-tested: Cholecystokinin receptor type A (Rattus norvegicus, UniProt P30551)
result-units: nM
IC50: 740

compound: CN1C(=O)[C@H](NC(=O)Nc2cccc(CN)c2)N=C(c2ccccc2)c2ccccc21
system-tested: Cholecystokinin receptor type A (Rattus norvegicus, UniProt P30551)
result-units: nM
IC50: 160

compound: Cc1ccc(NC(=O)NC2N=C(c3ccccc3)c3ccccc3N(CC(=O)Nc3ccncc3)C2=O)cc1 (racemic)
system-tested: Cholecystokinin receptor type A (Rattus norvegicus, UniProt P30551)
result-units: nM
IC50: 4000

compound: CN1C(=O)[C@H](NC(=O)Nc2ccccc2Cl)N=C(c2ccccc2)c2ccccc21
system-tested: Cholecystokinin receptor type A (Rattus norvegicus, UniProt P30551)
result-units: nM
IC50: 410

compound: Cc1cccc(NC(=O)NC2N=C(c3ccccc3)c3ccccc3N(CC(=O)O)C2=O)c1 (racemic)
system-tested: Cholecystokinin receptor type A (Rattus norvegicus, UniProt P30551)
result-units: nM
IC50: 7.6

I have this compound here, COc1cccc(NC(=O)NC2N=C(c3ccccc3)c3ccccc3N(CC[N+](C)(C)C)C2=O)c1 (racemic) , and I need its recorded IC50. 17000

Fill blank: measured IC50 of the compound CN1C(=O)C(NC(=O)Nc2ccc3ncccc3c2)N=C(c2ccccc2)c2ccccc21 (racemic) is ____. 310

So what's the measured IC50 for this one? Cc1cccc(NC(=O)NC2N=C(c3ccccc3)c3ccccc3N(CCOC(=O)CCC(=O)O)C2=O)c1 (racemic) 37

# get_value(readout='IC50', item= CCN(CC)C(=O)CN1C(=O)C(NC(=O)Nc2ccccc2Cl)N=C(c2ccccc2)c2ccccc21 (racemic) ) 200

Reported IC50, compound Cc1cccc(NC(=O)NC2N=C(c3ccccc3)c3cnccc3N(C)C2=O)c1 (racemic) : ____ 61.4
